test readout: logPo^PAMPA

Example compounds with recorded logPo^PAMPA:
CN(C)C(=O)C(CCN1CCC(O)(c2ccc(Cl)cc2)CC1)(c1ccccc1)c1ccccc1 [loperamide]; 0.15
CC(C)[C@H](NC(=O)[C@H](CCC(=O)O)NC(=O)[C@H](Cc1ccccc1)NC(=O)[C@@H](C)NC(=O)[C@@H](N)Cc1ccc(O)cc1)C(=O)N[C@H](C(=O)NCC(N)=O)C(C)C; −6.37
N[C@@H](Cc1ccccc1)C(=O)O; −5.36
OCCOCCN1CCN(C(c2ccccc2)c2ccc(Cl)cc2)CC1 (stereo not shown) [hydroxyzine]; −1.50
C[C@]12CC[C@@H]3c4ccc(O)cc4CC[C@H]3[C@@H]1CC[C@@H]2O; −3.08

QUERY: Return reported logPo^PAMPA; argument: `CCOC(=O)C1(c2ccccc2)CCN(C)CC1`
RESULT: 0.79

QUERY: Return reported logPo^PAMPA; argument: COc1cc([C@@H]2c3cc4c(cc3[C@@H](O[C@@H]3O[C@@H]5CO[C@@H](C)O[C@H]5[C@H](O)[C@H]3O)[C@H]3COC(=O)[C@H]23)OCO4)cc(OC)c1O [etoposide]
RESULT: −5.22

----------
cond: male, mouse, in vivo, pH 7.4
test readout: logPS(obs) (mL/g/s)
Write it as a number; the unit mL/g/s goes unstated.

QUERY: Return reported logPS(obs); argument: `COc1ccc2c3c1O[C@H]1C[C@@H](O)C=C[C@@]31CCN(C)C2`
RESULT: −2.46

QUERY: Return reported logPS(obs); argument: `CC(C)c1nc(CN(C)C(=O)N[C@H](C(=O)N[C@@H](Cc2ccccc2)C[C@H](O)[C@H](Cc2ccccc2)NC(=O)OCc2cncs2)C(C)C)cs1`
RESULT: −2.59

QUERY: Return reported logPS(obs); argument: `O=c1[nH]c2ccccc2n1CCCN1CCC(n2c(=O)[nH]c3cc(Cl)ccc32)CC1`
RESULT: −2.79

QUERY: Return reported logPS(obs); argument: `NCC1(CC(=O)O)CCCCC1`
RESULT: −2.34

----------
cond: male, CF-1, mouse, in vivo, 1 µM, pH 7.4
Recorded logPS(obs) for the following compounds

NC(=O)N1c2ccccc2C=Cc2ccccc21 [carbamazepine]; −1.26 mL/g/s
CCCN(CCC)S(=O)(=O)c1ccc(C(=O)O)cc1; −4.79 mL/g/s
CC(C)(C)NC(=O)[C@@H]1C[C@@H]2CCCC[C@@H]2CN1C[C@@H](O)[C@H](Cc1ccccc1)NC(=O)[C@H](CC(N)=O)NC(=O)c1ccc2ccccc2n1; −2.73 mL/g/s
CN1CCN(C2=Nc3cc(Cl)ccc3Nc3ccccc32)CC1; −1.73 mL/g/s
CN(C)CCCN1c2ccccc2Sc2ccc(Cl)cc21; −1.08 mL/g/s

QUERY: Return reported logPS(obs); argument: `COc1ccc(CCN2CCC(Nc3nc4ccccc4n3Cc3ccc(F)cc3)CC2)cc1`
RESULT: −1.55 mL/g/s

QUERY: Return reported logPS(obs); argument: `CN(C)CCC=C1c2ccccc2CCc2ccccc21`
RESULT: −0.66 mL/g/s

QUERY: Return reported logPS(obs); argument: CC(C)(C)c1ccc(C(O)CCCN2CCC(C(O)(c3ccccc3)c3ccccc3)CC2)cc1 (centres unmarked)
RESULT: −1.52 mL/g/s

----------
test readout: logPo^PAMPA
Please give only the number in your answer, with no unit.

CC(C)c1nc(CN(C)C(=O)N[C@H](C(=O)N[C@@H](Cc2ccccc2)C[C@H](O)[C@H](Cc2ccccc2)NC(=O)OCc2cncs2)C(C)C)cs1 [ritonavir]; −1.68
OCCN1CCN(CCCN2c3ccccc3Sc3ccc(Cl)cc32)CC1 [perphenazine]; 0.81

QUERY: Return reported logPo^PAMPA; argument: O=C1C[C@@H](c2ccc(O)cc2)Oc2cc(O)cc(O)c21 [naringenin]
RESULT: −3.71

QUERY: Return reported logPo^PAMPA; argument: C[C@]12CC[C@H]3[C@@H](CCC4=CC(=O)CC[C@@]43C)[C@@H]1CC[C@@H]2O [testosterone]
RESULT: −2.83

QUERY: Return reported logPo^PAMPA; argument: COc1cc2c(c(OC)c1OC)-c1ccc(OC)c(=O)cc1[C@@H](NC(C)=O)CC2 [colchicine]
RESULT: −5.40

QUERY: Return reported logPo^PAMPA; argument: CN1CC(=O)NC1=N [creatinine]
RESULT: −7.52

QUERY: Return reported logPo^PAMPA; argument: NCC1(CC(=O)O)CCCCC1 [gabapentin]
RESULT: −3.36

QUERY: Return reported logPo^PAMPA; argument: OCCOCCN1CCN(C2=Nc3ccccc3Sc3ccccc32)CC1 [quetiapine]
RESULT: −1.85

QUERY: Return reported logPo^PAMPA; argument: O=c1c(O)c(-c2ccc(O)c(O)c2)oc2cc(O)cc(O)c12 [quercetin]
RESULT: −4.77

----------
Recorded logPo^PAMPA for the following compounds
Please give only the number in your answer, with no unit.

CN1CCN(C2=Nc3cc(Cl)ccc3Nc3ccccc32)CC1; −0.39

QUERY: Return reported logPo^PAMPA; argument: `CN[C@H]1CC[C@@H](c2ccc(Cl)c(Cl)c2)c2ccccc21`
RESULT: 2.10

QUERY: Return reported logPo^PAMPA; argument: NC(=O)N1c2ccccc2C=Cc2ccccc21 [carbamazepine]
RESULT: −3.73

----------
test readout: logPo^PAMPA
Please give only the number in your answer, with no unit.

Example molecules with recorded logPo^PAMPA:
CC[C@]1(O)C[C@H]2CN(CCc3c([nH]c4ccccc34)[C@@](C(=O)OC)(c3cc4c(cc3OC)N(C=O)[C@H]3[C@@](O)(C(=O)OC)[C@H](OC(C)=O)[C@]5(CC)C=CCN6CC[C@]43[C@@H]65)C2)C1 [vincristine]; −2.72
CSc1ccc2c(c1)N(CCC1CCCCN1C)c1ccccc1S2 (stereo not drawn) [thioridazine]; 1.81
CCC12CCN(CC3(O)CC3)C(Cc3ccc(O)cc31)C2(C)C (stereo not drawn) [bremazocine]; −1.49
Oc1ccc2c3c1O[C@H]1c4[nH]c5ccccc5c4C[C@@]4(O)[C@@H](C2)N(CC2CC2)CC[C@]314 [naltrindole]; −0.94

QUERY: Return reported logPo^PAMPA; argument: CC(C)(C)NC(=O)[C@@H]1C[C@@H]2CCCC[C@@H]2CN1C[C@@H](O)[C@H](Cc1ccccc1)NC(=O)[C@H](CC(N)=O)NC(=O)c1ccc2ccccc2n1 [saquinavir]
RESULT: −3.69

QUERY: Return reported logPo^PAMPA; argument: CCCN1C[C@H](C)N([C@H](c2ccc(C(=O)N(CC)CC)cc2)c2cccc(OC)c2)C[C@H]1C [SNC121]
RESULT: −1.24

Data origin, for the record: paper PMC2747801
